Cited source for all entries: patent US8383581B2

- method notes: Stability of peptides in simulated intestinal fluid (pH 7.5)
- Type: in vitro ADME
- protocol conditions: simulated intestinal fluid, 24 h, 2 μM, pH 7.5
Where a SMILES comes first, the peptide text is derived from it. [ ]: non-standard residue; d: D form. ξ: configuration not given here. Arg(NO2) = N=C(NCCC[C@H](N)C(=O)O)N[N+](=O)[O-]; ξαMePhe(2,6-F2) = CC(N)(Cc1c(F)cccc1F)C(=O)O; ξαMePhe(2-F) = CC(N)(Cc1ccccc1F)C(=O)O; Nle = CCCC[C@H](N)C(=O)O; Ac5c = NC1(C(=O)O)CCCC1; Aib = CC(C)(N)C(=O)O
Please go through the items and note down their % degradation of peptides in 24 h when incubated with simulated intestinal fluid.
Reply numerically in %, unit not repeated.

Incoming: Tell me % degradation of peptides in 24 h when incubated with simulated intestinal fluid reported for CCCC[C@H](NC(=O)C(C)(Cc1c(F)cccc1F)NC(=O)[C@H](CCC(N)=O)NC(=O)[C@@H](NC(=O)[C@H](CCC(=O)O)NC(=O)C(C)(C)NC(=O)[C@@H](NC(=O)C1(N)CCCC1)C(C)C)[C@@H](C)CC)C(=O)N[C@@H](Cc1c[nH]cn1)C(=O)N[C@@H](CCC(N)=O)C(=O)NC(C)(C)C(=O)NC(C)(C)C(=O)NC(C)(C)C(=O)NC(C)(Cc1ccccc1F)C(N)=O (some centres unmarked) [Seq. ID. 560] (H-[Ac5c]V[Aib]EIQ[ξαMePhe(2,6-F2)][Nle]HQ[Aib][Aib][Aib][ξαMePhe(2-F)]-NH2)
Outgoing: 43

Incoming: Tell me % degradation of peptides in 24 h when incubated with simulated intestinal fluid reported for CCCC[C@H](NC(=O)C(C)(Cc1c(F)cccc1F)NC(=O)[C@H](CCC(N)=O)NC(=O)[C@@H](NC(=O)[C@H](CCC(=O)O)NC(=O)C(C)(C)NC(=O)[C@@H](NC(=O)C(C)(C)N)C(C)C)[C@@H](C)CC)C(=O)N[C@@H](Cc1c[nH]cn1)C(=O)N[C@@H](CCC(N)=O)C(=O)NC(C)(C)C(=O)NC(C)(C)C(=O)N[C@@H](CCCNC(=N)N[N+](=O)[O-])C(=O)NC(C)(Cc1ccccc1F)C(N)=O (some centres unmarked) [Seq. ID. 590] (H-[Aib]V[Aib]EIQ[ξαMePhe(2,6-F2)][Nle]HQ[Aib][Aib][Arg(NO2)][ξαMePhe(2-F)]-NH2)
Outgoing: 00
